target: hGLP-1R (Homo sapiens, UniProt P43220); experiment: cell-based or functional assay
Sequence (P43220 24-463): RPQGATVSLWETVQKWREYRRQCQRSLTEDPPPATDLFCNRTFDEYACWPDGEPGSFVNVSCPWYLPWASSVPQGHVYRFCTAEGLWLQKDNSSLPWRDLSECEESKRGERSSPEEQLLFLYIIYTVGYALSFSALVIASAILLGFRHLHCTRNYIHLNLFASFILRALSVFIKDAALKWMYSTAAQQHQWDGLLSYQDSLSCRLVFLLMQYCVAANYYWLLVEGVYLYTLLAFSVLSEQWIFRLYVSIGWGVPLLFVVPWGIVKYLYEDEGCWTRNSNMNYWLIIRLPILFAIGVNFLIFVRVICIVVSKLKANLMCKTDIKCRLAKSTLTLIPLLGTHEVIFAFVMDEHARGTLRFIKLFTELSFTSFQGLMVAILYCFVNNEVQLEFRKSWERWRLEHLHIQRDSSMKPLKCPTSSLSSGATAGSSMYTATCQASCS
measured_property: Relative cAMP EC50 (nM)
Give bare numbers, in nM.

binder	quantity_unit	Relative cAMP EC50
YXQGTXTSDYSIXLDKKAQXAFIEYLLETGPSSGAPPPSEG (synthetic construct; SITE 2: note = 2-Aminoisobutyric Acid; SITE 6: note = alpha-methyl-2-fluoro-L-phenylalanine; SITE 13: note = alpha-methyl-leucine; SITE 17: note = Lysine is chemically modified through conjugation of the epsilon-amino group of the Lysine side chain with (2-[2-(2-Amino-ethoxy)-et)) [Example 417]	nM	0.328
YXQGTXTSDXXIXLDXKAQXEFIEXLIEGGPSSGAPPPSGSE (Aib, αMeF, 4Pal, αMeS, αMeL, Orn, Me4Pal, αMeY, acyl, amide; synthetic construct; SITE 2: note = 2-Aminoisobutyric Acid; SITE 6: note = alpha-methyl-L-phenylalanine; SITE 10: note = 3-(4-Pyridyl)-L-alanine; SITE 11: note = alpha-methyl-L-serine; SITE 13: note = alpha-methyl-leucine; SITE 16: note = L-ornithine; SITE 17: note = Lysine is chemically modified th) [Example 1166]	nM	0.478
YXQGTXTSDYSILLDKKAQXAFIEYLEEGGPSSGAPPPS (not fully specified; synthetic construct; SITE 2: note = 2-Aminoisobutyric Acid; SITE 6: note = alpha-methyl-2-fluoro-L-phenylalanine; SITE 17: note = Lysine is chemically modified through conjugation of the epsilon-amino group of the Lysine side chain with (2-[2-(2-Amino-ethoxy)-ethoxy]-acetyl)-(gamma-Glu)-CO-(CH2) 16-) [Example 387]	nM	0.255
YXQGTFTSDXSXXLDXKAQXAFIEXLIEXGPSSGEPPPSGS (Aib, 4Pal, Orn, Me4Pal, lipidated Lys, C-terminal amide; synthetic construct; SITE 2: note = 2-Aminoisobutyric Acid; SITE 10: note = 3-(4-Pyridyl)-L-alanine; SITE 12: note = L-ornithine; SITE 13: note = alpha-methyl-leucine; SITE 16: note = L-ornithine; SITE 17: note = Lysine is chemically modified through conjugation of the epsilon-amino group of the Lys) [Example 991]	nM	3.91

Would you mind giving Relative cAMP EC50 for every binder in the list below?
1. YXQGTFTSDFSKXLDKKAQXAFIEYLLEGGPSSGAPPPSGS (synthetic construct; SITE 2: note = 2-Aminoisobutyric Acid; SITE 13: note = alpha-methyl-leucine; SITE 17: note = Lysine is chemically modified through conjugation of the epsilon-amino group of the Lysine side chain with (2-[2-(2-Amino-ethoxy)-ethoxy]-acetyl)2-(gamma-Glu)-CO-(CH2 )16-CO2H; SITE 20:) [Example 142]
2. YXQGTFTSDFSXXLDKKAQXAFIEWLLEGGESSGAPPPEGS (synthetic construct; SITE 2: note = 2-Aminoisobutyric Acid; SITE 12: note = L-ornithine; SITE 13: note = alpha-methyl-leucine; SITE 17: note = Lysine is chemically modified through conjugation of the epsilon-amino group of the Lysine side chain with (2-[2-(2-Amino-ethoxy)-ethoxy]-acetyl)-(gamma-Glu)) [Example 125]

Result:
4.37
4.12
